Measured Activity values are reported for all entries that follow.
# System: Rattus norvegicus
# Method description: Hepatotoxicity in po dosed rat assessed as effect on total albumin level (reference value: 1.63 +/- 0.02 g/dl)
# Assay type: toxicity, organism-based
# Measurement setup: in vivo
Value type: Activity (g/dL)

- CC(C)Cc1ccc(C(C)C(=O)O)cc1 (centres undefined) [IBUPROFEN]: 1.71
- NNC(=O)c1ccncc1 [ISONIAZID]: 1.48
- Clc1ccc(-c2nnc(-c3ccncc3)o2)c(Cl)c1: 1.72
- O=[N+]([O-])c1ccc(-c2nn3c(-c4ccncc4)nnc3s2)cc1: 1.77

====

# System: Rattus norvegicus
# Method description: Gastrointestinal toxicity in rat assessed as ulcerogenic index administered orally at dose equivalent to 210 mg/kg ibuprofen
# Format: organism-based
# Design: dose 210 mg/kg, route oral
# Measurement setup: in vivo, po
Measured UI values are reported for all entries that follow.
Value type: UI

* Cc1ccccc1-c1nnc(-c2ccncc2)o1 | 2.266
* CC(=O)Oc1ccccc1-c1nn2c(-c3ccncc3)nnc2s1 | 2.25
* Clc1ccccc1-c1nnc(-c2ccncc2)o1 | 2
* c1ccc(Oc2nn3c(-c4ccncc4)nnc3s2)cc1 | 1.5
* O=[N+]([O-])c1ccc(-c2nn3c(-c4ccncc4)nnc3s2)cc1 | 0.324
* c1ccc(-c2nnc(-c3ccncc3)o2)cc1 | 1.667
* NNC(=O)c1ccncc1 | 3.75
* Clc1ccc(-c2nn3c(-c4ccncc4)nnc3s2)c(Cl)c1 | 0.75
* Clc1ccccc1-c1nn2c(-c3ccncc3)nnc2s1 | 1.417

====

# System: Stomach (Rattus norvegicus)
# Method description: Gastrointestinal toxicity in rat gastric mucosa assessed as ulcerogenic activity-related malonaldehyde level per 100 mg of tissue administered orally at dose equivalent to 210 mg/kg ibuprofen (RVb = 3.26 nmol)
# Measurement setup: in vivo, po
Value type: Activity (nmol)

- c1ccc(-c2nn3c(-c4ccncc4)nnc3s2)cc1: 5.78
- CC(=O)Oc1ccccc1-c1nnc(-c2ccncc2)o1: 5.19
- CC(=O)Oc1ccccc1-c1nn2c(-c3ccncc3)nnc2s1: 8.82
- c1ccc(Oc2nn3c(-c4ccncc4)nnc3s2)cc1: 7.32
- Cc1ccccc1-c1nnc(-c2ccncc2)o1: 7.33
- Clc1ccc(-c2nnc(-c3ccncc3)o2)c(Cl)c1: 3.29
- Sc1nnc(-c2ccncc2)o1: 5.78
- c1ccc(Oc2nnc(-c3ccncc3)o2)cc1: 3.33

====

# Test system: Rattus norvegicus
# Method description: Hepatotoxicity in po dosed rat assessed as effect on serum alkaline phosphatase level (reference value: 12.17 +/- 0.16 U/mL)
# Assay type: toxicity, organism-based
# Measurement setup: in vivo
Measured Activity values are reported for all entries that follow.
Value type: Activity

* Clc1ccc(-c2nnc(-c3ccncc3)o2)c(Cl)c1 | 13.79 U/ml
* O=[N+]([O-])c1ccc(-c2nn3c(-c4ccncc4)nnc3s2)cc1 | 12.76 U/ml
* NNC(=O)c1ccncc1 | 8.31 U/ml
* CC(C)Cc1ccc(C(C)C(=O)O)cc1 (centres undefined) | 11.67 U/ml

====

# Tested on: Rattus norvegicus
# Method description: Hepatotoxicity in po dosed rat assessed as effect on serum SGOT level (reference value: 143.71 +/- 1.1 U/mL)
# Type: toxicity, organism-based
# Measurement setup: in vivo
Value type: Activity (U/ml)

* Clc1ccc(-c2nnc(-c3ccncc3)o2)c(Cl)c1 | 136.24
* NNC(=O)c1ccncc1 [ISONIAZID] | 151.25
* O=[N+]([O-])c1ccc(-c2nn3c(-c4ccncc4)nnc3s2)cc1 | 138.32
* CC(C)Cc1ccc(C(C)C(=O)O)cc1 (centres undefined) [IBUPROFEN] | 140.14

====

# Tested on: Rattus norvegicus
# Method description: Antiinflammatory activity in rat assessed as inhibition of carrageenan-induced paw edema administered orally at dose equivalent to 70 mg/kg ibuprofen after 4 hrs
# Format: functional
# Measurement setup: route oral
Outcome: YES for inhibition in vivo of at least 70%; NO for anything lower.

* Clc1ccccc1-c1nn2c(-c3ccncc3)nnc2s1 | NO
* Clc1ccccc1-c1nnc(-c2ccncc2)o1 | NO
* c1ccc(-c2nnc(-c3ccncc3)o2)cc1 | YES
* CC(=O)Oc1ccccc1-c1nnc(-c2ccncc2)o1 | NO
* NNC(=O)c1ccncc1 | NO
* CC(=O)Oc1ccccc1-c1nn2c(-c3ccncc3)nnc2s1 | NO
* Clc1ccc(-c2nnc(-c3ccncc3)o2)c(Cl)c1 | YES
* O=[N+]([O-])c1ccc(-c2nn3c(-c4ccncc4)nnc3s2)cc1 | YES
* c1ccc(-c2nn3c(-c4ccncc4)nnc3s2)cc1 | NO
* Cc1ccccc1-c1nn2c(-c3ccncc3)nnc2s1 | YES
* c1ccc(Oc2nn3c(-c4ccncc4)nnc3s2)cc1 | NO
* Sc1nnc(-c2ccncc2)o1 | NO
* O=[N+]([O-])c1ccc(-c2nnc(-c3ccncc3)o2)cc1 | NO
* Cc1ccccc1-c1nnc(-c2ccncc2)o1 | NO

====

# Test system: Rattus norvegicus
# Method description: Hepatotoxicity in po dosed rat assessed as effect on total serum protein level (reference value: 1.72+/- 0.02 g/dl)
# Type: toxicity, organism-based
# Measurement setup: in vivo
Value type: Activity

- NNC(=O)c1ccncc1: 1.55 g/dL
- CC(C)Cc1ccc(C(C)C(=O)O)cc1 (centres undefined): 1.74 g/dL
- Clc1ccc(-c2nnc(-c3ccncc3)o2)c(Cl)c1: 1.76 g/dL
- O=[N+]([O-])c1ccc(-c2nn3c(-c4ccncc4)nnc3s2)cc1: 1.78 g/dL

====

# System: Stomach (Rattus norvegicus)
# Method description: Gastrointestinal toxicity in rat gastric mucosa assessed as ulcerogenic activity-related malonaldehyde level per 100 mg of tissue administered orally at dose equivalent to 210 mg/kg ibuprofen (RVb = 3.26 nmol)
# Measurement setup: in vivo, po
Outcome: yes for Activity of at least 7 nmol; no for anything lower.

• Clc1ccccc1-c1nn2c(-c3ccncc3)nnc2s1 = yes
• O=[N+]([O-])c1ccc(-c2nn3c(-c4ccncc4)nnc3s2)cc1 = no
• Cc1ccccc1-c1nn2c(-c3ccncc3)nnc2s1 = no
• Clc1ccc(-c2nn3c(-c4ccncc4)nnc3s2)c(Cl)c1 = no
• Clc1ccccc1-c1nnc(-c2ccncc2)o1 = yes

Origin of values: ChEMBL document CHEMBL1208787
